# test_method_notes: Liver microsomal metabolic stability, human liver microsomes (HLM)
# experimental_setup: human, liver microsomes

compound | half-life at 1 μM
COc1ccnc(C2CC2)c1-c1nc2n(n1)CCC(=O)N2Cc1ccc(-c2nc(C(F)(F)F)cn2C(C)C)c(F)c1 [Example 207] | < 25 min
CC(C)n1ncc(Cl)c1-c1cc2n(n1)CCC(=O)N2Cc1ccc(-c2nc(C(F)(F)F)cn2C)c(F)c1 [Example 16] | > 25 min
CCn1cc(C(F)(F)F)nc1-c1ccc([C@@H](C)N2C(=O)CCn3nc(-c4c(OC(F)F)ncnc4C4CC4)nc32)cc1 [Example 208] | > 25 min
COc1ncnc(C2CC2)c1-c1cc2n(n1)CCC(=O)N2[C@H](C)c1ccc(-c2nc(C(F)(F)F)cn2C(C)C)cc1 [Example 123] | > 25 min
CCn1cc(C(F)(F)F)nc1-c1ccc(NC2CCCn3nc(-c4c(OC)ncnc4C4CC4)cc32)cc1 (centres unmarked) [Example 240] | > 25 min
CCn1cc(C(F)(F)F)nc1-c1ccc(C(C)N2C(=O)CCn3nc(-c4c(Cl)cnn4C(C)C)cc32)cc1 (centres unmarked) [Example 113] | < 25 min
Cc1cnn(C(C)C)c1-c1cc2n(n1)CCCN2Cc1ccc(-n2nc(C(F)(F)F)cc2C)c(F)c1 [Example 56] | < 25 min
COc1ncnc(C2CC2)c1-c1cc2n(n1)CCC(=O)N2[C@@H](C)c1ccc(-c2nc(C(F)(F)F)cn2C(C)C)cc1 [Example 122] | > 25 min
Cc1cnn(C(C)C)c1-c1nc2n(n1)CCC(=O)N2Cc1ccc(-c2nc(C(F)(F)F)cn2C)cc1 [Example 37] | < 25 min
CC(C)n1cc(C(F)(F)F)nc1-c1ccc([C@@H](C)N2C(=O)CCn3nc(-c4c(Cl)cnn4C(C)C)nc32)cc1 [Example 178] | < 25 min
CC(C)n1ncc(Cl)c1-c1cc2n(n1)CCC(=O)N2Cc1ccc(-c2cn(C)c(C(F)(F)F)n2)cc1 [Example 116] | > 25 min
CCn1cc(C(F)(F)F)nc1-c1ccc(NC2CCCc3nn(-c4ccccc4C(C)C)cc32)cc1F (centres unmarked) [Example 355] | < 25 min
COc1ncnc(C2CC2)c1-c1cc2n(n1)C(C)CCN2Cc1ccc(-c2nc(C(F)(F)F)cn2C)cc1 (racemic) [Example 51] | < 25 min
COc1cc(-c2nc(C(F)(F)F)cn2C(C)C)c(F)cc1CN1C(=O)CCn2nc(-c3c(OC)ncnc3C3CC3)nc21 [Example 202] | > 25 min
